This collection of values is drawn from the supplement of paper PMC12042874.

Recorded measurements of amyloid nucleation score, one per entry
Method Description: amyloid nucleation score (Sup35N fusion, yeast selection) (log enrichment); library NNK1; higher = more nucleation; inactive = no reads after selection;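 also: zero at mode of non-aggregating sequences after 7 days selection at 30°C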

- Sequence Record: "YYDTEGIHHSSIQRCQIRAG"
  amyloid nucleation score: 1.16
- Sequence Record: "YGSSLAAWVRLCVLTGDSRQ"
  amyloid nucleation score: 1.46
- Sequence Record: "MMLSLISVQV"
  amyloid nucleation score: 0.379
- Sequence Record: "WYYDCWIYL"
  amyloid nucleation score: 1.25
- Sequence Record: "SLSQFSKPGYICVNMVCSQA"
  amyloid nucleation score: 1.36
- Sequence Record: "TICNMSRWYDMKNYGEKMEV"
  amyloid nucleation score: 1.21
- Sequence Record: "EMEVLSVPSVLLVIVVR"
  amyloid nucleation score: -1.04
- Sequence Record: "DTSGSYMLSYLWGYWQLRSA"
  amyloid nucleation score: 0.073
